The measurements presented in this section are drawn from paper PMC2621343.

target: T1, recombinant rat OMP (olfactory marker protein) (rat, UniProt P08523 1-163)
T1 construct: olfactory marker protein, rat, recombinant
T1 sequence (looked up): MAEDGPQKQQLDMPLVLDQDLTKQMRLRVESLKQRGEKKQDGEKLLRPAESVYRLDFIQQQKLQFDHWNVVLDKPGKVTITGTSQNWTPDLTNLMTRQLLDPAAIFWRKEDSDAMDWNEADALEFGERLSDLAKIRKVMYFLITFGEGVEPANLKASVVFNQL
procedureDetails: SPR; data not shown; peptide immobilised on CM5 chip; OMP flowed over (0-500 nM by the methods), running buffer in the absence or presence of 0.1 mM Ca2+; interaction Ca2+-independent
measurementParameters: both partners purified
For each record, write down the corresponding pKd.
Please report pKd as the negative decimal logarithm of the molar concentration, giving only the number.

Using the record for RGGRRRFRVRQPIAHYRWDLMQRVGE (Immobilised on a CM5 chip by carbodiimide chemistry; also called Bex1 peptide; Bex1 (50–75) peptide; source: synthetic peptide, HPLC purified) [CaM binding peptide of Bex1 (Bex1 50-75)] , report its pKd.
4.05

Then this binder: RRLLFYKYVYKRYRAGKQRGM (Immobilised on a CM5 chip by carbodiimide chemistry; also called XIP regulatory-peptide of NCX; source: synthetic peptide, HPLC purified) [XIP peptide (NCX1 251-271)]
6.15
